Tested on: UO-31 renal
Assay: NCI-60 one-dose screen, 48 h (100 = growth as untreated, 0 = no growth, -100 = all killed)
Details: 10 µM unless noted
This is part of a sample that, as a whole, favours compounds with a hit. Of some 83,000 tested, about 20% had one in any assay.
Classification field: met = growth at or over 20%; not met = growth under 20%.

[
  {
    "molecule": "COc1ccc(Cl)cc1NC(=O)c1cc2c([nH]1)-c1nc(NC(=O)C(C)C)sc1CC2",
    "system-name": "UO-31 renal",
    "assigned-label": "met"
  },
  {
    "molecule": "CCc1ccc(C2=C/C(=C/c3ccc(Cl)cc3)C(=O)N2CCc2ccc(S(N)(=O)=O)cc2)cc1",
    "system-name": "UO-31 renal",
    "assigned-label": "not met"
  },
  {
    "molecule": "COc1ccc(/C(=C/c2cc(OC)c(OC)c(OC)c2)[N+](=O)[O-])cc1",
    "system-name": "UO-31 renal",
    "assigned-label": "not met"
  },
  {
    "molecule": "Nn1c(SCC(=O)Nc2cc(Cl)c(Cl)cc2Cl)nnc1-c1cc(F)c(Cl)cc1Cl",
    "system-name": "UO-31 renal",
    "assigned-label": "met"
  },
  {
    "molecule": "CC(C)(C)NCC(O)COc1c(Br)c(Br)c(Br)c2c1OC(C)(C)C2 (stereo unspecified)",
    "system-name": "UO-31 renal",
    "assigned-label": "not met"
  },
  {
    "molecule": "CC1(C)CC(=O)C2=C(C1)OC1=C(C(=O)CC(C)(C)C1)C2c1ccc(OCc2cn(-c3ccc(F)cc3F)nn2)cc1",
    "system-name": "UO-31 renal",
    "assigned-label": "met"
  }
]

// provenance: PubChem BioAssay (NCI)
